# log10(GI50) values compiled below
# protocol_description: Antitumor activity against human Colon cancer cells after 48 hrs by SRB assay
# Format: functional, Cancer cell lines
# experimental_context: Homo sapiens, Cancer cell lines, 48 h
The base-10 logarithm of GI50, taken with GI50 in µM, is what appears here.

Example cases with answers are listed next.
[
  {
    "molecule": "COc1ccc2c(c1)/C(=C\\c1c(-c3ccc(C)cc3)nc3sc(C)cn13)C(=O)N2",
    "log10(GI50)": 1.11
  },
  {
    "molecule": "COc1ccc2c(c1)/C(=C\\c1c(-c3cc(OC)ccc3OC)nc3sc(C)cn13)C(=O)N2C",
    "log10(GI50)": 1.52
  },
  {
    "molecule": "Cc1cn2c(/C=C3/C(=O)N(C)c4ccc(O)cc43)c(C)nc2s1",
    "log10(GI50)": 0.59
  }
]

Now for a further molecule.
Exam item: Item under review: COc1ccc2c(c1)/C(=C\c1c(C)nc3sc(C)nn13)C(=O)N2 . Reported log10(GI50)?
Marked response: -0.16

* * *

Listed below: TGI values for each entry.
# protocol_description: Antitumor activity against human renal cancer cells after 48 hrs by SRB assay
# Format: functional, Cancer cell lines
# experimental_context: Homo sapiens, Cancer cell lines, 48 h; read-out: pTGI (converted)
Answer format reminder: number followed by unit.

Observe how each entry below is paired with its result.
[
  {
    "compound": "COc1ccc2c(c1)/C(=C\\c1c(-c3ccc(C)cc3)nc3sc(C)cn13)C(=O)N2",
    "TGI": "67.6 µM"
  },
  {
    "compound": "Cc1cn2c(/C=C3/C(=O)Nc4ccc(F)cc43)c(C)nc2s1",
    "TGI": "40.7 µM"
  },
  {
    "compound": "Cc1cn2c(/C=C3/C(=O)N(C)c4ccccc43)c(C)nc2s1",
    "TGI": "97.7 µM"
  }
]

Exam item: Find the recorded TGI belonging to COc1ccc(OC)c(-c2nc3sccn3c2/C=C2/C(=O)N(C)c3ccccc32)c1 and report it.
Marked response: 72.4 µM

Exam item: Further, for Cc1cn2c(/C=C3/C(=O)Nc4ccccc43)c(-c3ccc(Cl)cc3)nc2s1 ?
Marked response: 18.6 µM

Exam item: Same for COc1ccc2c(c1)/C(=C\c1c(C)nc3sc(C)nn13)C(=O)N2
Marked response: 91.2 µM

Exam item: What do you get for CC[C@]1(O)C[C@H]2CN(CCc3c([nH]c4ccccc34)[C@@](C(=O)OC)(c3cc4c(cc3OC)N(C=O)[C@H]3[C@@](O)(C(=O)OC)[C@H](OC(C)=O)[C@]5(CC)C=CCN6CC[C@]43[C@@H]65)C2)C1.O=S(=O)(O)O [VINCRISTINE SULFATE] ?
Marked response: 20 µM

Exam item: Also need Cc1nn2c(/C=C3/C(=O)Nc4ccccc43)c(-c3ccc(Cl)cc3)nc2s1 , thanks.
Marked response: 33.1 µM

* * *

# protocol_description: Antitumor activity against human prostate cancer cells after 48 hrs by SRB assay
# Assay type: functional, Cancer cell lines
# experimental_context: Homo sapiens, Cancer cell lines, 48 h; read-out: pTGI (converted)
observed_property: TGI (µM)
Reply with just the number (in µM).

[
  {
    "compound": "Cc1cn2c(/C=C3/C(=O)Nc4ccc(O)cc43)c(-c3ccc(Cl)cc3)nc2s1",
    "TGI, µM": 50.1
  },
  {
    "compound": "CC[C@]1(O)C[C@H]2CN(CCc3c([nH]c4ccccc34)[C@@](C(=O)OC)(c3cc4c(cc3OC)N(C=O)[C@H]3[C@@](O)(C(=O)OC)[C@H](OC(C)=O)[C@]5(CC)C=CCN6CC[C@]43[C@@H]65)C2)C1.O=S(=O)(O)O [VINCRISTINE SULFATE]",
    "TGI, µM": 6.31
  }
]

Please examine the following record next.
Exam item: Quick check: TGI of Cc1cn2c(/C=C3/C(=O)Nc4ccccc43)c(-c3ccc(Cl)cc3)nc2s1 ?
Marked response: 17

* * *

# protocol_description: Antitumor activity against human Breast cancer cells after 48 hrs by SRB assay
# Type: functional, Cancer cell lines
observed_property: GI (µM)
// return numeric value only (unit: µM, not printed)

[
  {
    "compound": "COc1ccc2c(c1)/C(=C\\c1c(-c3ccc(C)cc3)nc3sc(C)cn13)C(=O)N2",
    "GI / µM": 12.88
  },
  {
    "compound": "Cc1ccc(-c2nc3sc(C)cn3c2/C=C2/C(=O)Nc3ccc(Cl)cc32)cc1",
    "GI / µM": 12.59
  }
]

Exam item: So what's the measured GI for this one? CC[C@]1(O)C[C@H]2CN(CCc3c([nH]c4ccccc34)[C@@](C(=O)OC)(c3cc4c(cc3OC)N(C=O)[C@H]3[C@@](O)(C(=O)OC)[C@H](OC(C)=O)[C@]5(CC)C=CCN6CC[C@]43[C@@H]65)C2)C1.O=S(=O)(O)O [VINCRISTINE SULFATE]
Marked response: 0.32

* * *

# System: Melanoma cell
# protocol_description: Antitumor activity against human Melanoma cells after 48 hrs by SRB assay
# Format: functional
# experimental_context: Homo sapiens, Melanoma cell, 48 h; read-out: pTGI (converted)
Examples of compounds with documented TGI follow.
Respond with a number, then the unit of measure.

Solved cases below.
[
  {
    "record_smiles": "Cc1cn2c(/C=C3/C(=O)Nc4ccccc43)c(-c3ccc(Cl)cc3)nc2s1",
    "TGI": "19.1 µM"
  },
  {
    "record_smiles": "Cc1cn2c(/C=C3/C(=O)Nc4ccc(O)cc43)c(-c3ccc(Cl)cc3)nc2s1",
    "TGI": "57.5 µM"
  },
  {
    "record_smiles": "COc1ccc(OC)c(-c2nc3sccn3c2/C=C2/C(=O)N(C)c3ccccc32)c1",
    "TGI": "47.9 µM"
  },
  {
    "record_smiles": "Cc1cn2c(/C=C3/C(=O)N(C)c4ccc(O)cc43)c(C)nc2s1",
    "TGI": "63.1 µM"
  },
  {
    "record_smiles": "Cc1ccc(-c2nc3sc(C)cn3c2/C=C2/C(=O)Nc3ccc(Cl)cc32)cc1",
    "TGI": "31.6 µM"
  }
]

Exam item: If you can, please state the reported TGI value of Cc1cn2c(/C=C3/C(=O)Nc4ccc(F)cc43)c(C)nc2s1 .
Marked response: 35.5 µM

Exam item: Check Cc1nn2c(/C=C3/C(=O)Nc4ccc(Cl)cc43)c(C)nc2s1 too.
Marked response: 97.7 µM

Exam item: Further, for Cc1nn2c(/C=C3/C(=O)Nc4ccccc43)c(-c3ccc(Cl)cc3)nc2s1 ?
Marked response: 35.5 µM

Exam item: Next record, please: COc1ccc2c(c1)/C(=C\c1c(-c3ccc(C)cc3)nc3sc(C)cn13)C(=O)N2
Marked response: 55 µM

Exam item: Next compound up: Cc1cn2c(/C=C3/C(=O)N(C)c4ccccc43)c(C)nc2s1
Marked response: 72.4 µM

* * *

Entries annotated with measured TGI
# System: Melanoma cell
# protocol_description: Antitumor activity against human Melanoma cells after 48 hrs by SRB assay
# Type: functional
# experimental_context: Homo sapiens, Melanoma cell, 48 h; read-out: pTGI (converted)
Dear colleague, please return just the value in µM, with no unit written.

Examples from the recorded data:
[
  {
    "molecule": "COc1ccc2c(c1)/C(=C\\c1c(C)nc3sc(C)nn13)C(=O)N2",
    "TGI (µM)": 69.2
  },
  {
    "molecule": "COc1ccc2c(c1)/C(=C\\c1c(-c3cc(OC)ccc3OC)nc3sc(C)cn13)C(=O)N2C",
    "TGI (µM)": 56.2
  }
]

Exam item: What value of TGI on Melanoma cell does CC[C@]1(O)C[C@H]2CN(CCc3c([nH]c4ccccc34)[C@@](C(=O)OC)(c3cc4c(cc3OC)N(C=O)[C@H]3[C@@](O)(C(=O)OC)[C@H](OC(C)=O)[C@]5(CC)C=CCN6CC[C@]43[C@@H]65)C2)C1.O=S(=O)(O)O [VINCRISTINE SULFATE] have?
Marked response: 7.94

Exam item: And for Cc1cn2c(/C=C3/C(=O)N(C)c4ccc(Cl)cc43)c(C)nc2s1 ?
Marked response: 63.1

* * *

# protocol_description: Antitumor activity against human prostate cancer cells after 48 hrs by SRB assay
# Type: functional, Cancer cell lines
# experimental_context: Homo sapiens, Cancer cell lines, 48 h; read-out: pTGI (converted)
observed_property: TGI (µM)
Write it as a number; the unit µM goes unstated.

Sample answers from the record:
[
  {
    "record_smiles": "Cc1cn2c(/C=C3/C(=O)Nc4ccc(F)cc43)c(C)nc2s1",
    "observed_value": 40.7
  },
  {
    "record_smiles": "COc1ccc2c(c1)/C(=C\\c1c(-c3cc(OC)ccc3OC)nc3sc(C)cn13)C(=O)N2C",
    "observed_value": 97.7
  },
  {
    "record_smiles": "Cc1ccc(-c2nc3sc(C)cn3c2/C=C2/C(=O)Nc3ccc(Cl)cc32)cc1",
    "observed_value": 55
  },
  {
    "record_smiles": "COc1ccc(OC)c(-c2nc3sccn3c2/C=C2/C(=O)N(C)c3ccccc32)c1",
    "observed_value": 91.2
  },
  {
    "record_smiles": "Cc1cn2c(/C=C3/C(=O)N(C)c4ccc(Cl)cc43)c(C)nc2s1",
    "observed_value": 4.37
  }
]

Now for a further compound.
Exam item: // query TGI value for entry Cc1nn2c(/C=C3/C(=O)Nc4ccccc43)c(-c3ccc(Cl)cc3)nc2s1
Marked response: 32.4
